Where do these numbers come from? They come from ChEMBL document CHEMBL1961873.

# ASSAY_SYSTEM: Platelet-derived growth factor receptor alpha (Homo sapiens) (UniProt P16234);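 note: values are mean percent inhibition of PDGFRA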
# Sequence (P16234 whole entry): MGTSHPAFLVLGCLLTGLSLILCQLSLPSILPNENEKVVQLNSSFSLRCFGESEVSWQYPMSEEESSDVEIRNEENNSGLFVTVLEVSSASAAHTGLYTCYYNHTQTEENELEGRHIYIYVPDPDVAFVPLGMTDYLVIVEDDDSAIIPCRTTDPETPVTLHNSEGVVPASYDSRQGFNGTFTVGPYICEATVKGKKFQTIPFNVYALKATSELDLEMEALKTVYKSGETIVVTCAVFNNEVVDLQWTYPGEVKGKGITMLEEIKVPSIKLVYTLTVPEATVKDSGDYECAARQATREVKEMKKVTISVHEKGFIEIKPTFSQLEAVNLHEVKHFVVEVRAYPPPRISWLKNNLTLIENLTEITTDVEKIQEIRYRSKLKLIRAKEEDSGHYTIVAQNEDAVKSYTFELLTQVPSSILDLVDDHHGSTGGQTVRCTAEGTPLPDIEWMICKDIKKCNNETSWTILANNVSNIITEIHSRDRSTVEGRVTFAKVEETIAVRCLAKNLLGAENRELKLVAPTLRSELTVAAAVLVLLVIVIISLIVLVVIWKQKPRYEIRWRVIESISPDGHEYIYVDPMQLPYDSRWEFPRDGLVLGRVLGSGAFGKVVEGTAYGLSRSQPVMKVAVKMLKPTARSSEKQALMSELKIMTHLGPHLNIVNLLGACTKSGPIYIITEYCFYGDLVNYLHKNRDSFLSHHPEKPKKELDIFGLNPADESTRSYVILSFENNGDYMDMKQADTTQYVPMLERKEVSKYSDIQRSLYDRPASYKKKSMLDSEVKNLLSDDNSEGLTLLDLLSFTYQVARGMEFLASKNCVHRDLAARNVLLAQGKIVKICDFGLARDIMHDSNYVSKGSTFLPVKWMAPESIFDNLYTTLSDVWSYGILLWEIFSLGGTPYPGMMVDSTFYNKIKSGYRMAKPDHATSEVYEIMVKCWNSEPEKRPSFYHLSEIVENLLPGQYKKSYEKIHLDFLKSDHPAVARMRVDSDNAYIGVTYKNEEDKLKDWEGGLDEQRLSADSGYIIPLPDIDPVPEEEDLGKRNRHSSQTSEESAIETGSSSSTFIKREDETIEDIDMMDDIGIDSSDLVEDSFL
# TEST_CONTEXT: at 1 µM
Use 40% as the dividing line for inhibition, with the line itself on the class 1 side and lower values as class 0.

> print(dat)
                                smiles.entry  class.name
 1  C[C@@H](Oc1cc(-n2cnc3ccc(OCC4CCN(C)CC4)cc32)sc1C(N)=O)c1ccccc1C(F)(F)F     class 1
 2  Cc1cc(Cl)cc2c1NC(=O)C2=NNc1ccc(S(N)(=O)=O)cc1     class 0
 3   NC(=O)c1cccc(Nc2nccc(Nc3cccc(F)c3)n2)c1     class 1
 4  O=C1Nc2ccccc2/C1=C/Nc1ccc2[nH]c(=O)[nH]c2c1     class 1
 5  COc1cc(Nc2nccc(-c3cnn4ncccc34)n2)cc(OC)c1     class 1
 6  COc1cc2ncnc(Nc3ccc4c(cnn4Cc4ccccc4)c3)c2cc1OC     class 0
 7  CN1CCN(C(=O)c2ccc(NC(=O)Nc3ccc(N(C)c4ccnc(Nc5ccc(CS(C)(=O)=O)cc5)n4)cc3)cc2)CC1     class 1
 8    N#Cc1cccc(Nc2nccc(-c3cnn4ncccc34)n2)c1     class 1
 9  Cc1cc(-c2ccccn2)cc(C)c1/C=C/c1cncc(-c2nn[nH]n2)c1     class 0
10             CCOc1nccc2c1nc(-c1nonc1N)n2CC     class 0
11  NC(=O)c1sc(-n2cnc3ccccc32)cc1OCc1ccccc1Br     class 0
12  CN(C)C(=O)O[C@H]1CN[C@H](C#Cc2cc3ncnc(Nc4ccc(OCc5cccc(F)c5)c(Cl)c4)c3s2)C1     class 0
13  CN(C)C(=O)O[C@@H]1CN[C@@H](C#Cc2cc3ncnc(Nc4ccc(OCc5cccc(F)c5)c(Cl)c4)c3s2)C1     class 0
14  CC(C)c1ccc2c(c1)NC(=O)/C2=N/Nc1ccc(S(N)(=O)=O)cc1     class 0
15             CCn1c(-c2nonc2N)nc2ccc(F)cc21     class 0
16  Oc1cccc(-c2nc(-c3ccccc3)[nH]c2-c2ccncc2)c1     class 0
17  COc1cccc(-n2ncc3c(N/N=C/c4ccc(C)cc4)ncnc32)c1     class 0
18       COc1cc2ncnc(Nc3ccc(C)c(O)c3)c2cc1OC     class 1
19  Cc1ccc(Nc2ccnc(Nc3cccc(C(N)=O)c3)n2)cc1O     class 1

---

# ASSAY_SYSTEM: Serine/threonine-protein kinase PAK 2 (Homo sapiens);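 note: reported values are mean inhibition of PAK2, averaged over measurements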
# TEST_CONTEXT: at 1 µM
RESULT_TYPE: inhibition (%)

> print(dat)
                                smiles.entry                              assay.system  result.type  unit.of.measurement  reading
 1  CS(=O)(=O)Nc1cccc(-c2ccc3c(NC(=O)C4CC4)n[nH]c3c2)c1  Serine/threonine-protein kinase PAK 2 (Homo sapiens)   inhibition                    %     0.37
 2  NS(=O)(=O)c1ccc(N/N=C2\C(=O)Nc3ccc(Cl)cc32)cc1  Serine/threonine-protein kinase PAK 2 (Homo sapiens)   inhibition                    %     1.37
 3  Nc1ccc(C#Cc2cncnc2Nc2ccc(OCc3cccc(F)c3)c(Cl)c2)cc1  Serine/threonine-protein kinase PAK 2 (Homo sapiens)   inhibition                    %     0.22
 4  CN(c1ccc(NC(=O)Nc2ccc(OC(F)(F)F)cc2)cc1)c1ccnc(Nc2cccc(S(N)(=O)=O)c2)n1  Serine/threonine-protein kinase PAK 2 (Homo sapiens)   inhibition                    %    -1.63
 5  NS(=O)(=O)c1ccc(NC=C2C(=O)Nc3ccc4ncsc4c32)cc1  Serine/threonine-protein kinase PAK 2 (Homo sapiens)   inhibition                    %     4.68
 6  COC(=O)c1ccc2c(c1)C(=Cc1cc(Br)c(O)c(Br)c1)C(=O)N2  Serine/threonine-protein kinase PAK 2 (Homo sapiens)   inhibition                    %     1.99
 7  NS(=O)(=O)c1cccc(Nc2cc(-c3ccc(F)cc3)n[nH]2)c1  Serine/threonine-protein kinase PAK 2 (Homo sapiens)   inhibition                    %     1.54
 8  [O-][S+]1CCN(Cc2ccc(-c3ccc4ncnc(Nc5ccc(OCc6ccccc6)c(Cl)c5)c4c3)o2)CC1  Serine/threonine-protein kinase PAK 2 (Homo sapiens)   inhibition                    %     0.24
 9  Cc1ccc(NC(=O)CC2CC2)cc1-c1ccc(C(=O)NCC2CC2)cc1  Serine/threonine-protein kinase PAK 2 (Homo sapiens)   inhibition                    %     1.56
10  COc1cc2ncnc(Nc3ccc4c(cnn4Cc4ccccc4)c3)c2cc1OC  Serine/threonine-protein kinase PAK 2 (Homo sapiens)   inhibition                    %      2.6

---

# System: Leucine-rich repeat serine/threonine-protein kinase 2 (Homo sapiens), Q5S007 [G2019S]
# Sequence (Q5S007 whole entry G2019S): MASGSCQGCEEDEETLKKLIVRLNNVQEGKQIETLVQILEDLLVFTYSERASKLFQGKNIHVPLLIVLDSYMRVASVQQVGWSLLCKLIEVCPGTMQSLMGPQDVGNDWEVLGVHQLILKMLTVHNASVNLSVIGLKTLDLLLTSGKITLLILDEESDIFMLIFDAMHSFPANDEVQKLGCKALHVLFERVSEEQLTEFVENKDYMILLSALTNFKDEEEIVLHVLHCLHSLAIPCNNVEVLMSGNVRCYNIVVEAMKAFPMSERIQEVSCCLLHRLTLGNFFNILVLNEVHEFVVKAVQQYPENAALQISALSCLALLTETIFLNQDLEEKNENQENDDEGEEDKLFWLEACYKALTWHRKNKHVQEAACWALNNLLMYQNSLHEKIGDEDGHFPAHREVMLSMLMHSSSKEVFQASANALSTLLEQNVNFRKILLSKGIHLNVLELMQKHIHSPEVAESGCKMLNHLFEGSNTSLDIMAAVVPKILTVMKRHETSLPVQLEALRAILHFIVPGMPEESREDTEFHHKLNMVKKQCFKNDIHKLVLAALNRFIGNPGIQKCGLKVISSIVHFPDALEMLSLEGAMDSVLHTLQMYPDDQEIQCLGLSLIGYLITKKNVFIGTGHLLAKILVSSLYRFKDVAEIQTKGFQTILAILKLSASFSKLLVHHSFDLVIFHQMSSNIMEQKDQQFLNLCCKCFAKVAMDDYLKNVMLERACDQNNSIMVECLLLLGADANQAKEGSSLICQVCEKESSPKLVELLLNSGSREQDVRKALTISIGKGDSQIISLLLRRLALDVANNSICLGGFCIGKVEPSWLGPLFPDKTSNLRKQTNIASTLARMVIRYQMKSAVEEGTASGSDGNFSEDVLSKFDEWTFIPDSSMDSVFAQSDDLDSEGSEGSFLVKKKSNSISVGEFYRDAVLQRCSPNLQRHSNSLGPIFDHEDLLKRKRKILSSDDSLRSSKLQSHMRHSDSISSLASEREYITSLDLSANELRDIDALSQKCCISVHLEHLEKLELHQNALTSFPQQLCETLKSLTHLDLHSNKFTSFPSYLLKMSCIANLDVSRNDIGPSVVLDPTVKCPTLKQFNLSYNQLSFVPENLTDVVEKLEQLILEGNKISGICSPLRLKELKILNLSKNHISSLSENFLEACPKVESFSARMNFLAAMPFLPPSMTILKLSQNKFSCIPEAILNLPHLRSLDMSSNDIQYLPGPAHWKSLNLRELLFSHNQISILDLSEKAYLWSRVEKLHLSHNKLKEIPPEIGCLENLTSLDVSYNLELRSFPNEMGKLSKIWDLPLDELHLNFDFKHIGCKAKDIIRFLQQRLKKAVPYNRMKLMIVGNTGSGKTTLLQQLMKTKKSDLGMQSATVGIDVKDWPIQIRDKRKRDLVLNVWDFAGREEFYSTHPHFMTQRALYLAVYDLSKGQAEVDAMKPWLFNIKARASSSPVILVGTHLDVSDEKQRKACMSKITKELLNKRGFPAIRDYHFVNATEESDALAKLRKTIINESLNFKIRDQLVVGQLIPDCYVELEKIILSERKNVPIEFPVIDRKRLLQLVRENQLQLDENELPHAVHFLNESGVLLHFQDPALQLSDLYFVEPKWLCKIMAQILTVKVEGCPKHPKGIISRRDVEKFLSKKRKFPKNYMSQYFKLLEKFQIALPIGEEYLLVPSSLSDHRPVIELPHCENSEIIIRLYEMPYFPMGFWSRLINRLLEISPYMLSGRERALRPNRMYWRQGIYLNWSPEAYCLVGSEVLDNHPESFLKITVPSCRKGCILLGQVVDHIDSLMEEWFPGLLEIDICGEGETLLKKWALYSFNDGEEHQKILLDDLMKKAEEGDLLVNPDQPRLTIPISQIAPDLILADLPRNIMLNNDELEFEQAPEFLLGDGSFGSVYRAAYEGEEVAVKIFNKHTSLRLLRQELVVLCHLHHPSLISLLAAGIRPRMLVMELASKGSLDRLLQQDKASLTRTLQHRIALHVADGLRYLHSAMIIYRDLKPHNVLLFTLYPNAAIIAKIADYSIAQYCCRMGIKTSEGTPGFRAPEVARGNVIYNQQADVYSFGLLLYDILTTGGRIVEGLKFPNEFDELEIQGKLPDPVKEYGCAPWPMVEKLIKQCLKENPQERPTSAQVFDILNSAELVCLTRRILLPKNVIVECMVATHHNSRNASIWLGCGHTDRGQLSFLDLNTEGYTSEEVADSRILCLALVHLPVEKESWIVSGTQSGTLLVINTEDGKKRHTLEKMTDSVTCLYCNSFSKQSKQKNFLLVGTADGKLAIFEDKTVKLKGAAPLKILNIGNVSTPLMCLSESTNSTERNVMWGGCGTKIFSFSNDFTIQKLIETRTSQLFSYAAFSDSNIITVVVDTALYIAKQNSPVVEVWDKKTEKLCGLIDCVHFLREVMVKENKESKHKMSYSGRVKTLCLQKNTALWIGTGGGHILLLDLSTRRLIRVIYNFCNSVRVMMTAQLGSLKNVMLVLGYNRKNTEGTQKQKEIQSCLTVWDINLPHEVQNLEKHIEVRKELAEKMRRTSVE
# TEST_CONTEXT: at 1 µM
Class definitions on inhibition: low value = under 7%, medium value = from 7% up to 20%, high value = 20% and over

> print(dat)
                                smiles.entry                              assay.system    class.name
 1  CN(C)c1cc2c(Nc3ccc4c(cnn4Cc4ccccc4)c3)ncnc2cn1  Leucine-rich repeat serine/threonine-protein kinase 2 (Homo sapiens), Q5S007 [G2019S]  medium value
 2             CCOc1nccc2c1nc(-c1nonc1N)n2CC  Leucine-rich repeat serine/threonine-protein kinase 2 (Homo sapiens), Q5S007 [G2019S]  medium value
 3             CCn1c(-c2nonc2N)nc2ccc(F)cc21  Leucine-rich repeat serine/threonine-protein kinase 2 (Homo sapiens), Q5S007 [G2019S]     low value
 4  Nc1nccc(-c2c(-c3ccc(F)cc3)ncn2CCCN2CCOCC2)n1  Leucine-rich repeat serine/threonine-protein kinase 2 (Homo sapiens), Q5S007 [G2019S]     low value
 5  Cc1ccc2c(-c3ccnc(Nc4cccc(C(F)(F)F)c4)n3)c(-c3ccccc3)nn2n1  Leucine-rich repeat serine/threonine-protein kinase 2 (Homo sapiens), Q5S007 [G2019S]     low value
 6  NS(=O)(=O)c1ccc(N/N=C2\C(=O)Nc3ccc(Cl)cc32)cc1  Leucine-rich repeat serine/threonine-protein kinase 2 (Homo sapiens), Q5S007 [G2019S]    high value
 7  COc1cccc(-n2ncc3c(N/N=C/c4ccc(S(C)(=O)=O)cc4)ncnc32)c1  Leucine-rich repeat serine/threonine-protein kinase 2 (Homo sapiens), Q5S007 [G2019S]     low value
 8  CC(C)c1ccc(Nc2nccc(-c3cnn4ncccc34)n2)cc1  Leucine-rich repeat serine/threonine-protein kinase 2 (Homo sapiens), Q5S007 [G2019S]    high value
 9  CCS(=O)(=O)c1ccc(OC)c(Nc2ncc(-c3cccc(OC)c3)o2)c1  Leucine-rich repeat serine/threonine-protein kinase 2 (Homo sapiens), Q5S007 [G2019S]    high value
10  Cc1ccc2c(-c3ccnc(Nc4ccc5c(c4)OCCO5)n3)c(-c3ccc(C(F)(F)F)cc3)nn2n1  Leucine-rich repeat serine/threonine-protein kinase 2 (Homo sapiens), Q5S007 [G2019S]     low value
11  ON=C1CCc2cc(-c3nc(C4CCNCC4)[nH]c3-c3ccncc3)ccc21  Leucine-rich repeat serine/threonine-protein kinase 2 (Homo sapiens), Q5S007 [G2019S]     low value
12  [O-][S+]1CCN(Cc2ccc(-c3ccc4ncnc(Nc5ccc(OCc6ccccc6)c(Cl)c5)c4c3)o2)CC1  Leucine-rich repeat serine/threonine-protein kinase 2 (Homo sapiens), Q5S007 [G2019S]     low value
13  CN(C)C(=O)O[C@@H]1CN[C@@H](C#Cc2cc3ncnc(Nc4ccc(OCc5cccc(F)c5)c(Cl)c4)c3s2)C1  Leucine-rich repeat serine/threonine-protein kinase 2 (Homo sapiens), Q5S007 [G2019S]     low value
14  O=C1Nc2ccc(-c3cccnc3)cc2C1=Cc1cc(Br)c(O)c(Br)c1  Leucine-rich repeat serine/threonine-protein kinase 2 (Homo sapiens), Q5S007 [G2019S]    high value
15  Nc1nccc(C#Cc2cncnc2Nc2ccc(OCc3cccc(F)c3)c(Cl)c2)n1  Leucine-rich repeat serine/threonine-protein kinase 2 (Homo sapiens), Q5S007 [G2019S]  medium value
16             c1ccc(Nc2ncc(-c3ccccc3)o2)cc1  Leucine-rich repeat serine/threonine-protein kinase 2 (Homo sapiens), Q5S007 [G2019S]  medium value
17  O=C(Nc1ccc(Oc2ccc3[nH]c(NC(=O)c4ccco4)nc3c2)cc1)Nc1cc(C(F)(F)F)ccc1F  Leucine-rich repeat serine/threonine-protein kinase 2 (Homo sapiens), Q5S007 [G2019S]    high value
18          CN(C)CCCn1c(-c2nonc2N)nc2cnccc21  Leucine-rich repeat serine/threonine-protein kinase 2 (Homo sapiens), Q5S007 [G2019S]     low value
19  CN1CCN(C(=O)c2ccc(NC(=O)Nc3ccc(N(C)c4ccnc(Nc5ccc(CS(C)(=O)=O)cc5)n4)cc3)cc2)CC1  Leucine-rich repeat serine/threonine-protein kinase 2 (Homo sapiens), Q5S007 [G2019S]    high value
20  COc1cccc(-n2ncc3c(N/N=C/c4ccc(C)cc4)ncnc32)c1  Leucine-rich repeat serine/threonine-protein kinase 2 (Homo sapiens), Q5S007 [G2019S]    high value
21  CS(=O)(=O)CCNCc1nc(-c2ccc3ncnc(Nc4ccc(OCc5cccc(C(F)(F)F)c5)cc4)c3c2)cs1  Leucine-rich repeat serine/threonine-protein kinase 2 (Homo sapiens), Q5S007 [G2019S]     low value
22  CCn1c(-c2nonc2N)nc2c(C#CC(C)(C)O)nc(OCCNC)cc21  Leucine-rich repeat serine/threonine-protein kinase 2 (Homo sapiens), Q5S007 [G2019S]     low value
23  COc1cc2ncnc(Nc3ccc4c(cnn4Cc4ccccc4)c3)c2cc1OC  Leucine-rich repeat serine/threonine-protein kinase 2 (Homo sapiens), Q5S007 [G2019S]  medium value
24  C[C@@H](Oc1cc(-n2cnc3ccc(OC[C@@H](O)CO)cc32)sc1C(N)=O)c1ccccc1Cl  Leucine-rich repeat serine/threonine-protein kinase 2 (Homo sapiens), Q5S007 [G2019S]    high value
25  O=S(=O)(CCOCc1ccc(-c2ccc3ncnc(Nc4ccc(OCc5cccc(F)c5)c(Cl)c4)c3c2)o1)c1ccccc1  Leucine-rich repeat serine/threonine-protein kinase 2 (Homo sapiens), Q5S007 [G2019S]  medium value
26  Nc1nccc(-c2c(-c3ccc(F)cc3)nn3cc(C(F)(F)F)ccc23)n1  Leucine-rich repeat serine/threonine-protein kinase 2 (Homo sapiens), Q5S007 [G2019S]     low value
27  O=C1Nc2ccccc2/C1=C/Nc1ccc2[nH]c(=O)[nH]c2c1  Leucine-rich repeat serine/threonine-protein kinase 2 (Homo sapiens), Q5S007 [G2019S]    high value
28  Cc1ccc2c(c1)/C(=N/Nc1ccc(S(N)(=O)=O)cc1)C(=O)N2  Leucine-rich repeat serine/threonine-protein kinase 2 (Homo sapiens), Q5S007 [G2019S]    high value
29  COC(=O)Nc1nc2cc(Oc3ccc(NC(=O)Nc4cccc(Br)c4)cc3)ccc2[nH]1  Leucine-rich repeat serine/threonine-protein kinase 2 (Homo sapiens), Q5S007 [G2019S]  medium value
30  COC(=O)c1ccc2c(c1)C(=Cc1cc(Br)c(O)c(Br)c1)C(=O)N2  Leucine-rich repeat serine/threonine-protein kinase 2 (Homo sapiens), Q5S007 [G2019S]    high value
31     COc1cc(/C=N/Nc2ncnc3c2cnn3C(C)C)ccc1O  Leucine-rich repeat serine/threonine-protein kinase 2 (Homo sapiens), Q5S007 [G2019S]  medium value
32  NS(=O)(=O)c1ccc(-c2cc3ccncc3cc2OCc2ccccc2)cc1  Leucine-rich repeat serine/threonine-protein kinase 2 (Homo sapiens), Q5S007 [G2019S]  medium value
33  OCc1ccc(-c2nc(-c3ccccn3)c(-c3ccc4c(c3)OCO4)[nH]2)cc1  Leucine-rich repeat serine/threonine-protein kinase 2 (Homo sapiens), Q5S007 [G2019S]  medium value
34  Oc1cccc(-c2nc(-c3ccccc3)[nH]c2-c2ccncc2)c1  Leucine-rich repeat serine/threonine-protein kinase 2 (Homo sapiens), Q5S007 [G2019S]  medium value
